# subject-of-test: cyclin E/CDK2 enzyme (Homo sapiens, UniProt P24941)
# Construct: made in house; host or cells: Sf9 insect cells, recombinant baculovirus
# assay-explanation: CDK2 ELISA kinase assay (phospho-Rb ser 795 detection)
# Assay type: biochemical
# conditions-used: In Vitro Enzyme Assays, read-out: CDK2 IC50
Hi! Just check whether IC50 is below 20 µM. Below gives true, equal or above gives false.

{"columns": ["compound", "subject-of-test", "class"],
 "data": [
  ["O=C1NC(=O)c2ccccc2/C1=C/Nc1ccc(N2CCOCC2)cc1 [Example 6]", "cyclin E/CDK2 enzyme (Homo sapiens, UniProt P24941)", "false"],
  ["CCOc1ccc(CN/C=C2\\C(=O)NC(=O)c3ccc(Br)cc32)cc1O [Example 166]", "cyclin E/CDK2 enzyme (Homo sapiens, UniProt P24941)", "false"],
  ["O=C1NC(=O)c2ccc(/C=C/CCCCl)cc2/C1=C/Nc1ccc(CN2CCCCC2)cc1 [Example 112]", "cyclin E/CDK2 enzyme (Homo sapiens, UniProt P24941)", "false"],
  ["Nc1ccc(CN/C=C2\\C(=O)NC(=O)c3ccc(Br)cc32)cc1O [Example 227]", "cyclin E/CDK2 enzyme (Homo sapiens, UniProt P24941)", "true"],
  ["O=C1NC(=O)c2ccc(I)cc2/C1=C/Nc1ccc(CN2CCC(O)CC2)cc1 [Example 440]", "cyclin E/CDK2 enzyme (Homo sapiens, UniProt P24941)", "true"],
  ["O=C1CC[C@@H](CN/C=C2\\C(=O)NC(=O)c3ccc(I)cc32)N1 (stereo in doubt) [Example 427]", "cyclin E/CDK2 enzyme (Homo sapiens, UniProt P24941)", "false"],
  ["CC(C)N1CCN(c2ccc(N/C=C3\\C(=O)NC(=O)c4ccc(-c5ccsc5)cc43)cn2)CC1 [Example 417]", "cyclin E/CDK2 enzyme (Homo sapiens, UniProt P24941)", "false"],
  ["COc1cc2c(cc1OC)/C(=C/Nc1ccc(N3CCN(C)CC3)cc1)C(=O)NC2=O [Example 37]", "cyclin E/CDK2 enzyme (Homo sapiens, UniProt P24941)", "false"],
  ["C=CC(=O)Nc1ccc(CN/C=C2\\C(=O)NC(=O)c3ccc(I)cc32)cc1O [Example 342]", "cyclin E/CDK2 enzyme (Homo sapiens, UniProt P24941)", "true"],
  ["CC(C)[Si](Oc1cc(CN/C=C2\\C(=O)NC(=O)c3ccc(Br)cc32)ccc1N)(C(C)C)C(C)C [Example 303]", "cyclin E/CDK2 enzyme (Homo sapiens, UniProt P24941)", "true"],
  ["CC1CCCN1Cc1ccc(N/C=C2\\C(=O)NC(=O)c3ccc(-c4ccoc4)cc32)cc1 (stereo not shown) [Example 291]", "cyclin E/CDK2 enzyme (Homo sapiens, UniProt P24941)", "false"],
  ["CN1CCN(c2ccc(N/C=C3\\C(=O)NC(=O)c4ccc(C(=O)N(C)C)cc43)cc2)CC1 [Example 65]", "cyclin E/CDK2 enzyme (Homo sapiens, UniProt P24941)", "false"],
  ["Cc1cc(N/C=C2\\C(=O)NC(=O)c3ccc(-c4ccoc4)cc32)cnc1N1C[C@@H](C)N[C@@H](C)C1 [Example 355]", "cyclin E/CDK2 enzyme (Homo sapiens, UniProt P24941)", "false"],
  ["CN(C)CCCN(C)c1ccc(N/C=C2\\C(=O)NC(=O)c3ccc(Br)cc32)cc1 [Example 275]", "cyclin E/CDK2 enzyme (Homo sapiens, UniProt P24941)", "false"]
]}
